B1: PTPN9 (parent)
chain: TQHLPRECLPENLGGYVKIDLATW

# Variants of: B1
# test-details: protein stability index of a GFP-peptide fusion (GPS, HEK-293T) (PSI 1-6); higher = more stable;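 further: lentivirally expressed fusions sorted by FACS into six bins by GFP to DsRed ratio, PSI derived from sequencing read proportions per bin multiplied by bin number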
# reported-conditions: c terminus: a fixed tail appended
Would you mind labelling by protein stability index? At or over 2 is rule met, under is rule not met.

## Task Item `TQHLPRECLPENLGGYVYIDLATW` with protein stability index of 2 or above?
## Result rule not met

## Task Item `TQHLPRECLPRNLGGYVKIDLATW` with protein stability index of 2 or above?
## Result rule not met

## Task Item `TQHLPWECLPENLGGYVKIDLATW` with protein stability index of 2 or above?
## Result rule not met
